# testSystem: BRD4 BD2 (Homo sapiens, UniProt O60885)
# testSummary: AlphaScreen binding assay, BRD4 Bromodomain 2
pIC50: −log10 of the molar value.
Each entry below lists one item and its recorded pIC50 value.

# inputSmiles, pIC50
records = [
    ("CC(=O)N1c2ccc(-c3cnn(CCO)c3)cc2N(c2nn(C)c3cccc(F)c23)C[C@@H]1C", "> 7.30"),
    ("CC(=O)N1c2ccccc2N(Cc2cc(C)ccc2C)C[C@@H]1C", "< 6.30"),
    ("CCOC(=O)N1c2ccc(-c3ccc(S(C)(=O)=O)cc3)cc2N(C(=O)c2ccco2)C[C@@H]1C", "< 6.30"),
    ("CC(=O)N1c2ccc(-c3ccc(S(C)(=O)=O)c(F)c3)cc2N(C(=O)OC2CCCCC2)C[C@@H]1C", "6.30 to 7.30"),
    ("CC(=O)N1c2ccc(-c3ccc(C(=O)N4CCNCC4)cc3)cc2N(C(=O)Oc2ccccc2)C[C@@H]1C", "> 7.30"),
    ("CC(=O)N1c2ccc(-c3cccc(S(C)(=O)=O)c3)cc2N(C(=O)C2CC2)C[C@@H]1C", "6.30 to 7.30"),
    ("CC(=O)N1c2ccc(-c3ccc(NS(C)(=O)=O)cc3)cc2N(C(=O)Oc2ccccn2)C[C@@H]1C", "6.30 to 7.30"),
]

----------
# testSystem: BRD4 BD2 (Homo sapiens, UniProt O60885)
# testSummary: AlphaScreen binding assay, BRD4 Bromodomain 2
pIC50: −log10 of the molar value.
Below is a list of entries, each paired with its recorded pIC50 value.

# inputSmiles, testSystem, pIC50
records = [
    ("CC(=O)N1c2ccc(-c3cccc(S(=O)(=O)NCCO)c3)cc2N(C(=O)C2CC2)C[C@@H]1C", "BRD4 BD2 (Homo sapiens, UniProt O60885)", "6.30 to 7.30"),
    ("COc1ccccc1NC(=O)N1C[C@H](C)N(C(C)=O)c2ccc(-c3ccc(S(C)(=O)=O)cc3)cc21", "BRD4 BD2 (Homo sapiens, UniProt O60885)", "6.30 to 7.30"),
    ("CC(=O)N1c2ccc(-c3ccc(S(C)(=O)=O)cc3)cc2N(C(=O)Oc2ccc(C)cc2)C[C@@H]1C", "BRD4 BD2 (Homo sapiens, UniProt O60885)", "6.30 to 7.30"),
    ("CC(=O)N1c2ccc(-c3cnn(C4CC4)c3)cc2N(C(=O)OC2CCC(F)(F)CC2)C[C@@H]1C", "BRD4 BD2 (Homo sapiens, UniProt O60885)", "6.30 to 7.30"),
    ("CNS(=O)(=O)c1cccc(-c2ccc3c(c2)N(C(=O)C2CC2)C[C@H](C)N3C(C)=O)c1", "BRD4 BD2 (Homo sapiens, UniProt O60885)", "6.30 to 7.30"),
    ("CC(=O)N1c2ccc(-c3cnn(C4CC4)c3)cc2N(C(=O)Oc2ccc(Cl)cc2C)C[C@@H]1C", "BRD4 BD2 (Homo sapiens, UniProt O60885)", "> 7.30"),
    ("CCOC(=O)N1C[C@H](C)N(C(C)=O)c2ccc(-c3ccc(S(=O)(=O)CC)cc3)cc21", "BRD4 BD2 (Homo sapiens, UniProt O60885)", "6.30 to 7.30"),
    ("CC(=O)N1c2ccc(-c3ccc4cnn(C)c4c3)cc2N(C(=O)c2ccco2)C[C@@H]1C", "BRD4 BD2 (Homo sapiens, UniProt O60885)", "> 7.30"),
    ("CC(=O)N1c2ccc(-c3cnn(CC(=O)N4CCOCC4)c3)cc2N(C(=O)OC(C)C)C[C@@H]1C", "BRD4 BD2 (Homo sapiens, UniProt O60885)", "6.30 to 7.30"),
    ("COc1ncccc1OC(=O)N1C[C@H](C)N(C(C)=O)c2ccc(-c3cnn(C4CC4)c3)cc21", "BRD4 BD2 (Homo sapiens, UniProt O60885)", "> 7.30"),
    ("CC(=O)N1c2ccc(-c3cnn(C4CC4)c3)cc2N(C(=O)OC2CCC2)C[C@@H]1C", "BRD4 BD2 (Homo sapiens, UniProt O60885)", "6.30 to 7.30"),
    ("CC(=O)N1c2ccc(-c3cnn(C(C)C)c3)cc2N(C(=O)OC(C)C)C[C@@H]1C", "BRD4 BD2 (Homo sapiens, UniProt O60885)", "6.30 to 7.30"),
    ("CC(=O)N1c2ccccc2N(C(=O)Cc2csc3ccc(Cl)cc23)C[C@@H]1C", "BRD4 BD2 (Homo sapiens, UniProt O60885)", "< 6.30"),
    ("CC(=O)N1c2ccc(-c3ccc(N4CCCS4(=O)=O)cc3)cc2N(C(=O)C2CC2)C[C@@H]1C", "BRD4 BD2 (Homo sapiens, UniProt O60885)", "6.30 to 7.30"),
    ("CCOC(=O)N1C[C@H](C)N(C(C)=O)c2ccc(-c3ccc(S(=O)(=O)C4CC4)cc3)cc21", "BRD4 BD2 (Homo sapiens, UniProt O60885)", "6.30 to 7.30"),
]

----------
# testSystem: BRD4 BD1 (Homo sapiens, UniProt O60885)
# testSummary: AlphaScreen binding assay, BRD4 Bromodomain 1
Below, each entry is listed with its recorded IC50.
propertyLabel: IC50

# inputSmiles, result
data = [
    ("CC(=O)N1c2ccc(-c3ccc(S(C)(=O)=O)cc3)nc2N(C(=O)C2CC2)C[C@@H]1C", "1 to 10 µM"),
    ("CC(=O)N1c2ccc(-c3ccc(NC(=O)N(C)C)cc3)cc2N(C(=O)c2ccco2)C[C@@H]1C", "1 to 10 µM"),
    ("CC(=O)N1c2ccc(-c3ccc(S(=O)(=O)CC4CC4)cc3)cc2N(C(=O)C2CC2)C[C@@H]1C", "1 to 10 µM"),
    ("CC(=O)N1c2ccc(-c3ccc(S(=O)(=O)CCN)cc3)cc2N(C(=O)OC(C)C)C[C@@H]1C", "0.1 to 1 µM"),
]

----------
The following compounds are shown together with reported IC50 values.
# testSystem: BRD4 BD2 (Homo sapiens, UniProt O60885)
# testSummary: AlphaScreen binding assay, BRD4 Bromodomain 2

# inputSmiles, IC50
measured = [
    ("CC(=O)N1c2ccccc2N(C(=O)Cc2cccs2)C[C@@H]1C", "> 500 nM"),
    ("COc1cc(-c2ccc3c(c2)N(C(=O)c2ccco2)C[C@H](C)N3C(C)=O)ccc1F", "50 to 500 nM"),
    ("CC(=O)N1c2ccc(-c3ccc(S(C)(=O)=O)c(F)c3)cc2N(C(=O)C2CC2)C[C@@H]1C", "50 to 500 nM"),
    ("CC(=O)N1c2ccc(-c3cnn(CCO)c3)cc2N(C(=O)OCC(F)(F)F)C[C@@H]1C", "> 500 nM"),
    ("CC(=O)N1c2ccc(-c3ccc(C(=O)N4CCCC4)cc3)cc2N(C(=O)c2ccco2)C[C@@H]1C", "< 50 nM"),
    ("CC(=O)N1c2ccc(-c3ccc(S(C)(=O)=O)cc3)cc2N(C(=O)c2csc(-c3ccccc3)n2)C[C@@H]1C", "> 500 nM"),
    ("CC(=O)N1c2ccc(-c3cnn(C4COC4)c3)cc2N(C(=O)C2CC2)C[C@@H]1C", "50 to 500 nM"),
    ("CNS(=O)(=O)c1ccc(-c2ccc3c(c2)N(C(=O)OC2CCOCC2)C[C@H](C)N3C(C)=O)cc1", "50 to 500 nM"),
    ("CC(=O)N1c2ccc(-c3cccc(S(=O)(=O)NCCO)c3)cc2N(C(=O)OC2CCCCC2)C[C@@H]1C", "50 to 500 nM"),
    ("CC(=O)N1c2ccc(-c3ccc(N4CCCS4(=O)=O)cc3)cc2N(C(=O)Oc2ccccn2)C[C@@H]1C", "< 50 nM"),
    ("CCOC(=O)N1C[C@H](C)N(C(C)=O)c2ccc(-c3ccc(NS(C)(=O)=O)c(F)c3)cc21", "50 to 500 nM"),
    ("CC(=O)N1c2ccc(-c3ccc(S(C)(=O)=O)cc3)cc2N(C(=O)Oc2ccc(F)cc2)C[C@@H]1C", "< 50 nM"),
    ("COc1ccc(Cl)cc1OC(=O)N1C[C@H](C)N(C(C)=O)c2ccc(-c3cnn(C4CC4)c3)cc21", "50 to 500 nM"),
    ("CNC(=O)c1cccc(-c2ccc3c(c2)N(C(=O)c2ccco2)C[C@H](C)N3C(C)=O)c1", "50 to 500 nM"),
    ("COc1ccc(-c2ccc3c(c2)N(C(=O)OC(C)C)C[C@H](C)N3C(C)=O)cc1NS(C)(=O)=O", "50 to 500 nM"),
]

----------
The reader will find reported IC50 values listed item by item below.
# testSystem: BRD4 BD1 (Homo sapiens)
# testSummary: AlphaScreen binding assay, BRD4 Bromodomain 1

# molecule, IC50
rows = [
    ("CC(=O)N1c2ccc(-c3cnn(CC4CCC4)c3)cc2N(C(=O)C2CC2)C[C@@H]1C [Example I-656]", "100 to 1000 nM"),
    ("CC(=O)N1c2ccc(-c3ccc(C(=O)N4CCC(N)CC4)cc3)cc2N(C(=O)OC(C)C)C[C@@H]1C [Example I-590]", "100 to 1000 nM"),
    ("CC(=O)N1c2ccc(-c3cnn(C4CC4)c3)cc2N(C(=O)OC2CCCC2)C[C@@H]1C [Example I-23]", "< 100 nM"),
    ("CCOC(=O)N1C[C@H](C)N(C(C)=O)c2ccc(-c3ccc(N4CCCS4(=O)=O)c(F)c3)cc21 [Example I-1155]", "100 to 1000 nM"),
]
